Target: Calcium sensing receptor (hCaSR) (Homo sapiens)
Sequence (P41180 20-1078): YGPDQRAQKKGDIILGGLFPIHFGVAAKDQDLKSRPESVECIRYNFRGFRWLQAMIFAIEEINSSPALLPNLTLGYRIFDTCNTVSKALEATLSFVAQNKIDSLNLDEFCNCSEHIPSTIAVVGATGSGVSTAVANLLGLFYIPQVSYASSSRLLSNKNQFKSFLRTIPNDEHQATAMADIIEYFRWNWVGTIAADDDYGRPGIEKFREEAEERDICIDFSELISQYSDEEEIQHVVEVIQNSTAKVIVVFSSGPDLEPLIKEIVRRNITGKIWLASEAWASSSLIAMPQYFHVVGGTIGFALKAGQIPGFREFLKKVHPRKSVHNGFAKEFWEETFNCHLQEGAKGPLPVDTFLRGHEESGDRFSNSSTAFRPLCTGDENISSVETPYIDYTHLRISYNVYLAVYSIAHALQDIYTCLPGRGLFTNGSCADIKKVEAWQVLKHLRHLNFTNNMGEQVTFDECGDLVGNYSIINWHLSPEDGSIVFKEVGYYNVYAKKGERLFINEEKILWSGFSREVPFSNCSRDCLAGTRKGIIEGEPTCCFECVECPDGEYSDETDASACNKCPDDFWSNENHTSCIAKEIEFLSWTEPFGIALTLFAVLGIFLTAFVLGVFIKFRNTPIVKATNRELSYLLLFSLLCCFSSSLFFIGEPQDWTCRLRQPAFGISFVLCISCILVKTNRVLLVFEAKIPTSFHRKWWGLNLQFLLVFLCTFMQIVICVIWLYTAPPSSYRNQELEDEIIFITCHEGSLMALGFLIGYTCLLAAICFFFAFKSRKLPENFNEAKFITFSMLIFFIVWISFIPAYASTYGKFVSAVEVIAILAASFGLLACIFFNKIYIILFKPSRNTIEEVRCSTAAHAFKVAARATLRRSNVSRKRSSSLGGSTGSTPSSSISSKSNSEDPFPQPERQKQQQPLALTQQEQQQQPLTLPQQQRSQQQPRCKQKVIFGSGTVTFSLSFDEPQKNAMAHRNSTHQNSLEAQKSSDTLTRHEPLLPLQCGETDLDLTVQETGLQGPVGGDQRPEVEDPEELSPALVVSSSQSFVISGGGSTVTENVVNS
Test: In-vitro assay of calcimimetics through modulation of calcium sensing receptor: increase in intracellular calcium [Ca2+]i, FLIPR
Conditions: stably transfected HEK293 cells expressing hCaSR; Fluo4NW dye; 0.3 mM CaCl2; 8-point assay; read-out: EC50 Range
Procedure: In-Vitro Assay Method of Calcimemtics Through Modulation of Calcium Sensing Receptor (CaSR): The ability of the compounds to modulate Calcium sensing receptor is determined by measuring an increase in intracellular calcium [Ca^2+]i. Stably transfected HEK293 cells expressing hCaSR_pTriEx-3 hygro vector are developed. […] The activities of the compounds are measured in FLIPR using 0.3 mM CaCl2 in 20 mM HEPES base buffer. […]
pEC50: −log10 of the molar value. Where a name gives a salt, the structure may show the parent alone.
outcome.measure: pEC50

COc1ccc(C(=O)O)cc1N1CC(CN[C@H](C)c2cccc3ccccc23)Oc2ccccc21 (single isomer, unassigned) [Example 55a, hydrochloride]: 6.70 to 7.30
COC(=O)c1cc(N2CC(CN[C@H](C)c3cccc4ccccc34)Oc3ccccc32)ccc1C (single isomer, unassigned) [Example 31a]: 7.30 to 7.70
C[C@@H](NCC1CN(c2cc(F)cc(C(=O)O)c2)c2ccccc2O1)c1cccc2ccccc12 (stereo partly drawn) [Example 72, hydrochloride]: 6.70 to 7.30
C[C@@H](NCC1CN(c2ccc(O)c(C(=O)O)c2)c2ccccc2O1)c1cccc2ccccc12 (single isomer, unassigned) [Example 66b, hydrochloride]: > 7.70
C[C@@H](NCC1CN(c2cccc(CCC(=O)O)c2)c2ccccc2O1)c1cccc2ccccc12 (single isomer, unassigned) [Example 68b, hydrochloride]: 6.70 to 7.30

Provide measured pEC50 on Calcium sensing receptor (hCaSR) (Homo sapiens) for C[C@@H](NCC1CN(c2ccc(CCC(=O)O)cc2)c2ccccc2O1)c1cccc2ccccc12 (stereo partly drawn) please.
6.70 to 7.30

Provide measured pEC50 on Calcium sensing receptor (hCaSR) (Homo sapiens) for C[C@@H](NCCC1CN(c2cccc(C(=O)O)c2)c2cccc(F)c2O1)c1cccc2ccccc12 (single isomer, unassigned) [Example 160a, hydrochloride] please.
> 7.70

Provide measured pEC50 on Calcium sensing receptor (hCaSR) (Homo sapiens) for Cc1ccc(N2CC(CCN[C@H](C)c3cccc4ccccc34)Oc3ccc(F)cc32)cc1C(=O)O (single isomer, unassigned) [Example 166a, hydrochloride] please.
> 7.70

Provide measured pEC50 on Calcium sensing receptor (hCaSR) (Homo sapiens) for COc1ccc(N2CC(CCN[C@H](C)c3cccc4ccccc34)Oc3ccccc32)cc1C(=O)O (stereo partly drawn) [Example 141a, hydrochloride] please.
> 7.70
